Parameter pIC50: see the listing below.
- tested.on: USP28 (His-tagged USP28-FL-mammalian) (Homo sapiens, UniProt Q96RU2)
- Construct: Expression of USP28 (1-1077)-TEV-6*His (pTT5 vector); made in house; host or cells: Expi293f cells (pTT5 vector)
- Sequence (Q96RU2 1-1077): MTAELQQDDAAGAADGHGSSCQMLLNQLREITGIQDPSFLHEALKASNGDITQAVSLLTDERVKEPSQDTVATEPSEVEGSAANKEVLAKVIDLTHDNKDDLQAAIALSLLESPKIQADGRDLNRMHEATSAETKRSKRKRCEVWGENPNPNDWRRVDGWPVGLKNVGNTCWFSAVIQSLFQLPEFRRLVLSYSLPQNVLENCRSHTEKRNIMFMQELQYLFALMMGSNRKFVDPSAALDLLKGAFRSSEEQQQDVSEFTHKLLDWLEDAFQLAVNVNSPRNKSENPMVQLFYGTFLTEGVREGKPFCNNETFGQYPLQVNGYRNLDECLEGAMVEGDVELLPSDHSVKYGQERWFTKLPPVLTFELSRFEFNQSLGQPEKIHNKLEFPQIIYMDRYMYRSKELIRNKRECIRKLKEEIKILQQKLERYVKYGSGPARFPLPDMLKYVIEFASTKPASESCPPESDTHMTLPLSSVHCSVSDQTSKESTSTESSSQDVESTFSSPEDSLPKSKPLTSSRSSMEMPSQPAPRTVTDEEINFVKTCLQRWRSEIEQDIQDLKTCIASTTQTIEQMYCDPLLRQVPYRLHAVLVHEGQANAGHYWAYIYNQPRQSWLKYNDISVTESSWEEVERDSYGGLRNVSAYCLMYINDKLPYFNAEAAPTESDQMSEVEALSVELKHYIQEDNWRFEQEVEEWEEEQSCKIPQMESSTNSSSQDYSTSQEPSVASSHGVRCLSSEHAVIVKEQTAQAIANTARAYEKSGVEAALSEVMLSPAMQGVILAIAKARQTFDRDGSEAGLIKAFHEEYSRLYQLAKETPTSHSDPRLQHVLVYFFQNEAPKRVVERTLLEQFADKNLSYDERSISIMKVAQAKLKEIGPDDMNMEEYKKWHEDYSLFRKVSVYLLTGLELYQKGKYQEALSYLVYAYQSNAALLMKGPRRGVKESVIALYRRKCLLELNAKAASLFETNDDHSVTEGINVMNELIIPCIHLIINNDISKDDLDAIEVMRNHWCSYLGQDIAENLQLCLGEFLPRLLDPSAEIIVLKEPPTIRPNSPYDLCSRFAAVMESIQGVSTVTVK
- protocol: Ubiquitin-Rhodamine 110 Assay for USP28 Activity, Example A-1(a)
- Type: biochemical
- experimental.context: Ubiquitin-Rhodamine 110 assay, Example A-1(a); read-out: USP28 A-1(a) IC50 range
pIC50: −log10 of the molar value.

// below: answered compounds
compound=Cc1ccc2c(N)c(C(=O)N[C@H]3COc4cc([C@H]5CCNCC5(F)F)ccc4C3)sc2n1 tested_on="USP28 (His-tagged USP28-FL-mammalian) (Homo sapiens, UniProt Q96RU2)" value_kind=pIC50 result="7.30 to 9.00"
compound=COc1ccc2c(N)c(C(=O)N[C@H]3CCc4cc(N5C[C@H](OC)[C@@H](N)C5)ccc4C3)sc2n1 tested_on="USP28 (His-tagged USP28-FL-mammalian) (Homo sapiens, UniProt Q96RU2)" value_kind=pIC50 result="5.70 to 6.70"

# next compound below
Dear colleague, please send me the reported pIC50 for `COC[C@@H]1CN(c2ccc3c(c2)CC[C@H](NC(=O)c2sc4nc(C)ccc4c2N)C3)C[C@@H]1N` when you can.
6.70 to 7.30
